From: PubChem BioAssay AID1918942

Recorded measurements of viability, T/C, one per entry
tested on: 743489-274-T-PDC complex spheroid viability; assay: Anticancer human tumor 743489-274-T-PDC patient-derived renal cell carcinoma cell line growth inhibition; settings: second compound 10 µM; first compound 0.0949 µM; stronger effect = lower value;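 note: spheroids exposed to compounds for 7 days before readout; 100% = DMSO vehicle control wells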
metric: viability, T/C (%)

[[record]]
compound = "COc1cc(C2c3cc4c(cc3C(OC3OC5COC(C)OC5C(O)C3O)C3COC(=O)C23)OCO4)cc(OC)c1O (stereo unspecified) + NC1CCC(NC2CC2c2ccccc2)CC1"
resultunits = "%"
obsvalue = 112

[[record]]
compound = "CCN(c1cc(-c2ccc(CN3CCOCC3)cc2)cc(C(=O)NCc2c(C)cc(C)[nH]c2=O)c1C)C1CCOCC1 + NC1CC1c1ccc(-c2cccc(O)c2)cc1"
resultunits = "%"
obsvalue = 106

[[record]]
compound = "O=C(C=Cc1cccc(S(=O)(=O)Nc2ccccc2)c1)NO + NC1CC1c1ccc(-c2cccc(O)c2)cc1"
resultunits = "%"
obsvalue = 87.8

[[record]]
compound = "Nc1ccccc1NC(=O)c1ccc(CNC(=O)OCc2cccnc2)cc1 + NC1CCC(NC2CC2c2ccccc2)CC1"
resultunits = "%"
obsvalue = 87.9

[[record]]
compound = "NS(=O)(=O)OCC1CC(n2ccc3c(NC4CCc5ccccc54)ncnc32)CC1O (stereo unspecified) + NC1CC1c1ccc(-c2cccc(O)c2)cc1"
resultunits = "%"
obsvalue = 129

[[record]]
compound = "CCc1c2c(nc3ccc(O)cc13)-c1cc3c(c(=O)n1C2)COC(=O)[C@]3(O)CC + NC1CC1c1ccc(-c2cccc(O)c2)cc1"
resultunits = "%"
obsvalue = 32

[[record]]
compound = "Nc1ccccc1NC(=O)c1ccc(CNC(=O)OCc2cccnc2)cc1 + NC1CC1c1ccc(-c2cccc(O)c2)cc1"
resultunits = "%"
obsvalue = 77.9

[[record]]
compound = "COc1cc(C2c3cc4c(cc3C(OC3OC5COC(C)OC5C(O)C3O)C3COC(=O)C23)OCO4)cc(OC)c1O (stereo unspecified) + NC1CC1c1ccc(-c2cccc(O)c2)cc1"
resultunits = "%"
obsvalue = 97

[[record]]
compound = "CCN(c1cc(-c2ccc(CN3CCOCC3)cc2)cc(C(=O)NCc2c(C)cc(C)[nH]c2=O)c1C)C1CCOCC1 + NC1CCC(NC2CC2c2ccccc2)CC1"
resultunits = "%"
obsvalue = 108

[[record]]
compound = "Nc1ncn(C2CC(O)C(CO)S2)c(=O)n1 (stereo unspecified) + NC1CCC(NC2CC2c2ccccc2)CC1"
resultunits = "%"
obsvalue = 93.4

[[record]]
compound = "Nc1ccn(C2OC(CO)C(O)C2(F)F)c(=O)n1 (stereo unspecified) + NC1CC1c1ccc(-c2cccc(O)c2)cc1"
resultunits = "%"
obsvalue = 46.2

[[record]]
compound = "Nc1ncn(C2CC(O)C(CO)S2)c(=O)n1 (stereo unspecified) + NC1CC1c1ccc(-c2cccc(O)c2)cc1"
resultunits = "%"
obsvalue = 67.8

[[record]]
compound = "CCc1c2c(nc3ccc(O)cc13)-c1cc3c(c(=O)n1C2)COC(=O)[C@]3(O)CC + NC1CCC(NC2CC2c2ccccc2)CC1"
resultunits = "%"
obsvalue = 51.3

[[record]]
compound = "O=C(C=Cc1cccc(S(=O)(=O)Nc2ccccc2)c1)NO + NC1CCC(NC2CC2c2ccccc2)CC1"
resultunits = "%"
obsvalue = 106

[[record]]
compound = "Nc1ccn(C2OC(CO)C(O)C2(F)F)c(=O)n1 (stereo unspecified) + NC1CCC(NC2CC2c2ccccc2)CC1"
resultunits = "%"
obsvalue = 74.3

[[record]]
compound = "NS(=O)(=O)OCC1CC(n2ccc3c(NC4CCc5ccccc54)ncnc32)CC1O (stereo unspecified) + NC1CCC(NC2CC2c2ccccc2)CC1"
resultunits = "%"
obsvalue = 132

